Consider the following compounds; for each one, report its log10 IC50.
- measuredTarget: human SMG-1 (hSMG-1) (Homo sapiens, UniProt Q96Q15)
- Sequence (Q96Q15 whole entry): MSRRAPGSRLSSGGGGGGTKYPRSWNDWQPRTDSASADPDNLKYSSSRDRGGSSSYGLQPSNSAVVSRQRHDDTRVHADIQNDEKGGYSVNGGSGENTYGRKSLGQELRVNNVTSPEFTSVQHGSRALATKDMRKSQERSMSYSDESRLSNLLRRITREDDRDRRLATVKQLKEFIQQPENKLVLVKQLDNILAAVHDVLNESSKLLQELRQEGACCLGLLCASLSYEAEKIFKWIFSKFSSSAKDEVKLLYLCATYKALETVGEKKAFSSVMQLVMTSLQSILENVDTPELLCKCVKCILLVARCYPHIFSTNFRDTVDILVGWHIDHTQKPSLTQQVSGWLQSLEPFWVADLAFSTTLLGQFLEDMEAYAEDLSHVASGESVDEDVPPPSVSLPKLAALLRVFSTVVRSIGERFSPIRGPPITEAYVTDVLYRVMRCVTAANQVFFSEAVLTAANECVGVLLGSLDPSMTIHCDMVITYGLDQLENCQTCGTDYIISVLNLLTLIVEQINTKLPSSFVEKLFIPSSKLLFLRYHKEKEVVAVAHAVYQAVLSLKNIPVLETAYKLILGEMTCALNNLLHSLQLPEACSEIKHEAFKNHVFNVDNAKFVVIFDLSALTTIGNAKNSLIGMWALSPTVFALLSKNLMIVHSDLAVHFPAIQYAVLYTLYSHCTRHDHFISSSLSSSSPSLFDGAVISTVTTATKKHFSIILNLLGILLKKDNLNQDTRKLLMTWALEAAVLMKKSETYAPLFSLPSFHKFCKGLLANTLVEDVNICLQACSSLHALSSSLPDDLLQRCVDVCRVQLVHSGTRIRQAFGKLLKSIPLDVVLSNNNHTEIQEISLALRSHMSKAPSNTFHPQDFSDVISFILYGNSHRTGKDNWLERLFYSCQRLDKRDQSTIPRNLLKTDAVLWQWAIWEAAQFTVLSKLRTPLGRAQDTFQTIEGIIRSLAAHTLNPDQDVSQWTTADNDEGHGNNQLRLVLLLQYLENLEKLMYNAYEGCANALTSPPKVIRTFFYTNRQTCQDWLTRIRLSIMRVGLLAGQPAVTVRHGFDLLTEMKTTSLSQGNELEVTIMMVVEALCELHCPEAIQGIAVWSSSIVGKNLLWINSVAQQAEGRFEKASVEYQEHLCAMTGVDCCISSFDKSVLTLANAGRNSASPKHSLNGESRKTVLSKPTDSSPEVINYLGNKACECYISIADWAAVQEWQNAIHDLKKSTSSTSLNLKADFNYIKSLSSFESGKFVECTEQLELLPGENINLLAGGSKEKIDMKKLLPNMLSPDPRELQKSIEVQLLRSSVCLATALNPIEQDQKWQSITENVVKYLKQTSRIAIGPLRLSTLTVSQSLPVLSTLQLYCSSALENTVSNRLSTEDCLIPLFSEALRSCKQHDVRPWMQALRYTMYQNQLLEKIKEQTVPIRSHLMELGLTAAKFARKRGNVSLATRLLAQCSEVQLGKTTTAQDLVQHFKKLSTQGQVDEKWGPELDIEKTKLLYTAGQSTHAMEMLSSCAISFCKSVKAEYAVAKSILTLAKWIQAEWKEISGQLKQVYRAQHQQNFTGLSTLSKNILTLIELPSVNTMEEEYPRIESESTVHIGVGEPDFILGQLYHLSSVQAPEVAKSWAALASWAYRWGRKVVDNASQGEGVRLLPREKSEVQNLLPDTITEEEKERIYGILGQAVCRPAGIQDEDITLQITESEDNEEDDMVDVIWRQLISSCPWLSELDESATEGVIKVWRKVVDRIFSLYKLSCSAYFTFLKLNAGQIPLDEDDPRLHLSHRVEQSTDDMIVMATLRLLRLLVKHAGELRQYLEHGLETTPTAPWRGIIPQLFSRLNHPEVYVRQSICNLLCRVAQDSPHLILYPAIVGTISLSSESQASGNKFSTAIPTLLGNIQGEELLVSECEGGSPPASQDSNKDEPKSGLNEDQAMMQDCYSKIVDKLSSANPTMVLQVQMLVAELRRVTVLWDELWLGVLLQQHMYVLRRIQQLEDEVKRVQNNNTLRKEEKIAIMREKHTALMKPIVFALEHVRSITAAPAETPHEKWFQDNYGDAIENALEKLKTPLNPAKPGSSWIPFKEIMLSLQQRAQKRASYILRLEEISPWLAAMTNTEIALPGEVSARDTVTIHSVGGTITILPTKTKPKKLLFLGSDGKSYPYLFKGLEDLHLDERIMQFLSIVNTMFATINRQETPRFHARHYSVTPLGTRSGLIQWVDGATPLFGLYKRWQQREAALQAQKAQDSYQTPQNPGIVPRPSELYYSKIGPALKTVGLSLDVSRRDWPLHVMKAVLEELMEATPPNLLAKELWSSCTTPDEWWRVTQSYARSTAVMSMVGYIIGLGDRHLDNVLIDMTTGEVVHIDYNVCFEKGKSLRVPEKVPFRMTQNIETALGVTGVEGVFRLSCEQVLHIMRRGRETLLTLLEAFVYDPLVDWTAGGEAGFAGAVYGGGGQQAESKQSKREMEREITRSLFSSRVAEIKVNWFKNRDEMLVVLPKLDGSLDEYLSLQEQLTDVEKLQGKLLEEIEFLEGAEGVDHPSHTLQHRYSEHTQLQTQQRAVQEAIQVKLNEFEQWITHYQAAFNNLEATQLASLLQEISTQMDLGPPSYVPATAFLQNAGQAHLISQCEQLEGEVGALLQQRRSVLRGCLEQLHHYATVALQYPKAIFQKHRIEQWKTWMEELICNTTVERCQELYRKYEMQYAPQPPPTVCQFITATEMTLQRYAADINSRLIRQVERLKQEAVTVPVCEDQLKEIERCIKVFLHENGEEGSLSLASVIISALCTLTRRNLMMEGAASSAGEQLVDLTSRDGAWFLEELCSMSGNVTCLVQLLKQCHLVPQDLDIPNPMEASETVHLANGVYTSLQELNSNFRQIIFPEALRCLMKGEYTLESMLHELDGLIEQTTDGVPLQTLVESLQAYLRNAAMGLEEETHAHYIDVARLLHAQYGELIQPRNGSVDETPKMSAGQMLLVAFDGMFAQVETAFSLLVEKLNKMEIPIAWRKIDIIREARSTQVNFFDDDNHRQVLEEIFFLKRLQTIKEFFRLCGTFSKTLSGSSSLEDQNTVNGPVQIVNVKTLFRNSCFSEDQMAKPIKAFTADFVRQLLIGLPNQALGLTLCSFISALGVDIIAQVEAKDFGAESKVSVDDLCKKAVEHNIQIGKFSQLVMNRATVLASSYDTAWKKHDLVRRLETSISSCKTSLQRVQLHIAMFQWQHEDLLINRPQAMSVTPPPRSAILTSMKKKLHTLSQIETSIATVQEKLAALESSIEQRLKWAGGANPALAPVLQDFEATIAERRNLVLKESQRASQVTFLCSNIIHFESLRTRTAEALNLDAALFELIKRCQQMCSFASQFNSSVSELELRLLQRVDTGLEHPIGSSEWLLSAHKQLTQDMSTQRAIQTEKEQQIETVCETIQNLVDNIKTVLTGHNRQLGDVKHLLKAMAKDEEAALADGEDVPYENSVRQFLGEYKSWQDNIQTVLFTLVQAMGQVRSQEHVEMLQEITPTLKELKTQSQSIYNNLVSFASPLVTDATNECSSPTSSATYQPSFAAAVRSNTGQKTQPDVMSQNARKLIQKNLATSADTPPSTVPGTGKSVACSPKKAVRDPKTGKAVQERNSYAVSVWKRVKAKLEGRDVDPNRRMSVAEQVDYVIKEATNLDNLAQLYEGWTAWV
- test: hSMG-1 kinase assay (DELFIA)
- measurementParameters: read-out: hSMG1 IC50
Could you please treat all values as log10 of IC50 in µM?

Recorded log10 IC50 for Cn1ccc2c3nc(-c4ccc(NC(=O)NCC5CC5)cc4)nc(N4CCOCC4)c3ccc21 with human SMG-1 (hSMG-1) (Homo sapiens, UniProt Q96Q15), please?
1.20

Recorded log10 IC50 for Cn1ccc2c3nc(-c4ccc(NC(=O)NCCF)cc4)nc(N4CCOCC4)c3ccc21 with human SMG-1 (hSMG-1) (Homo sapiens, UniProt Q96Q15), please?
1.18

Recorded log10 IC50 for CNC(=O)Nc1ccc(-c2nc(N3CCOCC3)c3ccc4c(ccn4S(C)(=O)=O)c3n2)cc1 with human SMG-1 (hSMG-1) (Homo sapiens, UniProt Q96Q15), please?
-1.37

Recorded log10 IC50 for CS(=O)(=O)n1ccc2c3nc(-c4ccc(NC(=O)Nc5cccnc5)cc4)nc(N4CCOCC4)c3ccc21 with human SMG-1 (hSMG-1) (Homo sapiens, UniProt Q96Q15), please?
-0.80

Recorded log10 IC50 for Cn1ccc2c3nc(-c4cccc(NC(=O)Nc5cccnc5)c4)nc(N4CCOCC4)c3ccc21 with human SMG-1 (hSMG-1) (Homo sapiens, UniProt Q96Q15), please?
0.74

Recorded log10 IC50 for Cn1ccc2c3nc(-c4ccc(NC(=O)NCC(F)(F)F)cc4)nc(N4CCOCC4)c3ccc21 with human SMG-1 (hSMG-1) (Homo sapiens, UniProt Q96Q15), please?
0.81

Recorded log10 IC50 for CN(C)CCn1ccc2c3nc(-c4ccc(NC(=O)Nc5ccccc5)cc4)nc(N4CCOCC4)c3ccc21 with human SMG-1 (hSMG-1) (Homo sapiens, UniProt Q96Q15), please?
0.26

Recorded log10 IC50 for Cn1ccc2c3nc(-c4ccc(NC(=O)NC5CCC5)cc4)nc(N4CCOCC4)c3ccc21 with human SMG-1 (hSMG-1) (Homo sapiens, UniProt Q96Q15), please?
1.22

Recorded log10 IC50 for CCOC(=O)Nc1ccc(-c2nc(N3CCOCC3)c3ccc4c(ccn4S(C)(=O)=O)c3n2)cc1 with human SMG-1 (hSMG-1) (Homo sapiens, UniProt Q96Q15), please?
1.19
